Let's go through some IC50 measurements on Glycogen synthase kinase-3 alpha (Homo sapiens) together.
Sequence (P49840 whole entry): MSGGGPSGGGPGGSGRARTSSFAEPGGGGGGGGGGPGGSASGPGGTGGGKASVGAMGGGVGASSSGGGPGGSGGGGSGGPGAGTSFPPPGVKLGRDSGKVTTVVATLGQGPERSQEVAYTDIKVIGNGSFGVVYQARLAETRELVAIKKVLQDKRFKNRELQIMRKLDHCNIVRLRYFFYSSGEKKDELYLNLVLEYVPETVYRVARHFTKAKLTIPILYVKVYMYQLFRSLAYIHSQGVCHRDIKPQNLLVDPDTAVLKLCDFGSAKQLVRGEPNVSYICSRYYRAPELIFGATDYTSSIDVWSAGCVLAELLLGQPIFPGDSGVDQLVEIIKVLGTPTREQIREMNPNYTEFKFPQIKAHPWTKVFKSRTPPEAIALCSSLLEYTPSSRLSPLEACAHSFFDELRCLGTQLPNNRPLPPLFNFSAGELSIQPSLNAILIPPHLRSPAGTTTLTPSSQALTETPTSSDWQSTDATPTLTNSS

Inquiry: Given the compound CC1(C)CC(=O)C2=C(C1)NC1=C(CN=N1)C21CCN(S(=O)(=O)c2ccccc2OC(F)F)CC1 , what is its reported IC50?
Reply text: < 100 nM

###

Let's go through some pIC50 measurements on Glycogen synthase kinase-3 beta (Homo sapiens) together.
Sequence (P49841 whole entry): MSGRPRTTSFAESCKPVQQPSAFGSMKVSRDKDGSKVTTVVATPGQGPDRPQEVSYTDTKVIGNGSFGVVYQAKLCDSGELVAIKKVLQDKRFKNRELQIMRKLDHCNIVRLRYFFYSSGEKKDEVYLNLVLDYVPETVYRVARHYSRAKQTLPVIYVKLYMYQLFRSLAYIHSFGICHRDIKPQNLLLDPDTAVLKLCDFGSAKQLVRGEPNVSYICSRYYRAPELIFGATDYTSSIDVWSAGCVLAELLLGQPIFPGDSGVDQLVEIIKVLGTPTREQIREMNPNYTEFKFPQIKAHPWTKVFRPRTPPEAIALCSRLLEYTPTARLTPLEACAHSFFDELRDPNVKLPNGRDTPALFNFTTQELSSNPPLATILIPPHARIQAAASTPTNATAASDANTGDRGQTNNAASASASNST
pIC50: −log10 of the molar value.

Sample answers from the record:
| compound | pIC50 |
| --- | --- |
| CCC1(c2cccc(-c3cncn3C)c2)C2=C(CC(C)(C)CC2=O)NC2N=NC(C)=C21 (configuration not stated) [US20250313563, Compound 884001] | > 7.00 |
| CC[C@]1(c2cccc(-c3ccnn3C)c2)C2=CN=NC2NC2=C1C(=O)NC1(CCCC1)C2 (some centres not stated) [US20250313563, Compound 948019] | < 5.30 |
| O=C1C[C@]2(CCOC2)CC2=C1C1(CCOCC1)C1=C(N=NC1)N2 [US20250313563, Compound 901476] | 6.00 to 7.00 |
| CC[C@]1(c2cccc(C(F)(F)F)c2)C2=CN=NC2NC2=C1C(=O)N(CC(F)(F)F)CC2 (some centres not stated) [US20250313563, Compound 912205] | < 5.30 |
| CCC1(c2cccc(-c3cncn3C(C)C)c2)C2=CN=NC2NC2=C1C(=O)CC(C)(C)C2F (configuration not stated) [US20250313563, Compound 963155] | > 7.00 |
| CC1N=NC2=C1C1(CCCC1)C1=C(CC(C)(C)CC1=O)N2 (configuration not stated) [US20250313563, Compound 786072] | > 7.00 |

Here's the next entry for you.
Inquiry: Give Glycogen synthase kinase-3 beta (Homo sapiens) pIC50 for CC[C@@]1(c2cccc(-c3ccnc4c3CCCC4)c2)C2=C(N=NC2)NC2=C1C(=O)N(Cc1ccccc1)C2 [US20250313563, Compound 948552]
Reply text: < 5.30

###

- subject-of-test: Glycogen synthase kinase-3 alpha (Homo sapiens)
pIC50: −log10 of the molar value.
Quick reference: pIC50 of the listed items.

| compound | pIC50 |
| --- | --- |
| CC1(C)CC(=O)C2=C(C1)NC1=C(CN=N1)C21COC2(CN(C(=O)C3CCC(F)(F)C3)C2)C1 (stereo not drawn) | > 7.00 |
| CC[C@@]1(c2cccc(-c3ccnc(OC)c3)c2)C2=CN=NC2NC2=C1C(=O)CC(C)(C)C2 (stereo partly drawn) | 5.30 to 6.00 |

Here's the next entry for you.
Inquiry: Give Glycogen synthase kinase-3 alpha (Homo sapiens) pIC50 for CCC1(c2cccc(S(C)(=O)=O)c2)C2=C(CC(C)(C)NC2=O)NC2N=NC(C)=C21 (stereo not drawn) [US20250313563, Compound 947395B:]
Reply text: > 7.00

###

Let's go through some IC50 measurements on UniProt P49841 together.

Sample answers from the record:
| molecule | IC50 |
| --- | --- |
| CCC1(c2cccc(-c3c(C)nn(C)c3C)c2)C2=CN=NC2NC2=C1C(=O)NC(C)(C)C2 (stereo not drawn) | < 0.1 µM |
| CC[C@@]1(c2cccc(Br)c2)C2=CN=NC2NC2=C1C(=O)C[C@H](C)C2 (stereo partly drawn) | 0.1 to 1 µM |
| CC1(C)CC(=O)C2=C(C1)NC1=C(CN=N1)[C@]21CCOC2(CCC2)C1 | 0.1 to 1 µM |
| CCC1(c2cccc(C(F)(F)F)c2)C2=CN=NC2NC2=C1C(=O)N(c1cnn(C)c1C)CC2 (stereo not drawn) | 1 to 5 µM |
| CC1(C)CC(=O)C2=C(C1)NC1=C(CN=N1)C21CN(CCc2ccccc2)C1 | > 5 µM |
| CC[C@@]1(c2cccc(-c3cc(C(C)C)nn3C)c2)C2=CN=NC2NC2=C1C(=O)NC(C)(C)C2 (stereo partly drawn) | 1 to 5 µM |

Inquiry: Given the molecule CCC1(c2cccc(C(F)(F)F)c2)C2=CN=NC2NC2=C1C(=O)N(C(C)C)CC2 (stereo not drawn) , what is its reported IC50?
Reply text: 0.1 to 1 µM

Inquiry: Given the molecule CCC1(c2cccc(-c3ccncc3)c2)C2=CN=NC2NC2=C1C(=O)CC(C)(C)C2 (stereo not drawn) , what is its reported IC50?
Reply text: < 0.1 µM

Inquiry: Given the molecule Cc1nccc([C@H]2CC[C@@]3(CC2)C2=C(N=NC2)NC2=C3C(=O)CC(C)(C)C2)c1C , what is its reported IC50?
Reply text: 0.1 to 1 µM

Inquiry: Given the molecule CC[C@@]1(c2cccc(-c3cnnc(C)c3)c2)C2=CN=NC2NC2=C1C(=O)CC(C)(C)C2 (stereo partly drawn) , what is its reported IC50?
Reply text: 1 to 5 µM

Inquiry: Given the molecule CCC1(c2cccc(-c3c(C)cncc3C)c2)C2=CN=NC2NC2=C1C(=O)CC(C)(C)C2 (stereo not drawn) , what is its reported IC50?
Reply text: < 0.1 µM

Inquiry: Given the molecule CC[C@]1(c2ccccc2)C2=CN=NC2NC2=C1C(=O)C[C@]1(CCN(C)C1=O)C2 (stereo partly drawn) , what is its reported IC50?
Reply text: > 5 µM

Inquiry: Given the molecule CCC1(c2cccc(-c3ccnc(C)c3)c2)C2=C(CC(C)(C)CC2=O)NC2N=NC(C)=C21 (stereo not drawn) , what is its reported IC50?
Reply text: 0.1 to 1 µM
